Tested on: CHO K1 cells
condition set: 0.5, 2.5, 5 μg/mL, FIG. 8
value type: DNA uptake compared with the lipofectamine control

| structure as smiles | measured |
| --- | --- |
| CCCCCCCCC=CCCCCCCCCOc1ccc(CNCCCCNCCCCN)cc1OCCCCCCCCC=CCCCCCCCC.Cl.Cl.Cl | as good |
| CCCCCCCCC=CCCCCCCCCOc1ccc(CNCCCCNCCCCNCCCCN)cc1OCCCCCCCCC=CCCCCCCCC.Cl.Cl.Cl.Cl | better |
| CCCCCCCCC=CCCCCCCCCOc1ccc(CNCCOCCOCCN)cc1OCCCCCCCCC=CCCCCCCCC.Cl.Cl | as good |
| CCCCCCCCC=CCCCCCCCCOc1ccc(C(=O)NCCCCNCCCCN)cc1OCCCCCCCCC=CCCCCCCCC.Cl.Cl | better |

Numbers sourced from patent US7910363B1.
